Below, each of the sequences is paired with its reported solubility value.
assay type: physicochemical
Ends that are not written are not given here.

Recorded results for 2 sequences are shown here.
>  <SEQUENCE CONTENT>
LTLGEFLKLDRERAK [BIR-014]

>  <TEST VALUE>
< 99.5 mg/mL

$$$$
>  <SEQUENCE CONTENT>
TLGEFLKLDRERAKD [BIR-002a]

>  <TEST VALUE>
< 23.5 mg/mL

$$$$

Let's switch to this sequence now.
So what's the measured solubility for this one? TLGEFLKLDRERAKN [BIR-002]
< 32.9 mg/mL
